# Tested on: Yap1 mRNA
# PROTOCOL: Dose-dependent inhibition of human Yap1 in A-431 cells (Example 8, 10,000 cells per well, RTS4814)
# Type: cell-based
# SETTINGS: A-431 cells, free uptake, approximately 48 hours, RTS4814; linear regression on log/linear plot
Strand notation (5' to 3'): a small letter for the sugar, then the base; units joined by * are phosphorothioate-linked, units joined directly phosphodiester-linked; [ ] holds rarer units or linkages, { } end groups; capitals alone tell only the bases. k = constrained ethyl (cEt); [5mC] = 5-methylcytosine; d = 2'-deoxy (DNA)
TEST_READOUT: pIC50
Note: pIC50 values are expressed as the negative base-10 logarithm of concentration in M.

Query block: Give pIC50 for 1075084 (antisense kT*kG*kA*d[5mC]*dA*dA*d[5mC]*dA*dA*d[5mC]*dA*d[5mC]*dT*k[5mC]*k[5mC]*kT) [compound 1075084]
Result block: 6.52

Query block: Give pIC50 for 1074609 (DNA k[5mC]*kT*kA*dG*dT*dT*dA*d[5mC]*dA*dT*d[5mC]*dA*dT*k[5mC]*kT*k[5mC]) [compound 1074609]
Result block: 7.00

Query block: Give pIC50 for 1075983 (kA*kT*k[5mC]*dG*dA*dA*dA*dA*dG*d[5mC]*dA*dA*dA*k[5mC]*kT*k[5mC]; antisense) [compound 1075983]
Result block: 7.00

Query block: Give pIC50 for 1074850 (kT*kT*kG*dT*dT*dA*dT*dG*dA*dT*dA*dG*dG*k[5mC]*kA*k[5mC]; antisense) [compound 1074850]
Result block: 7.40
